experimental.target: Tyrosine-protein kinase Fyn (Homo sapiens)
Sequence (P06241 whole entry): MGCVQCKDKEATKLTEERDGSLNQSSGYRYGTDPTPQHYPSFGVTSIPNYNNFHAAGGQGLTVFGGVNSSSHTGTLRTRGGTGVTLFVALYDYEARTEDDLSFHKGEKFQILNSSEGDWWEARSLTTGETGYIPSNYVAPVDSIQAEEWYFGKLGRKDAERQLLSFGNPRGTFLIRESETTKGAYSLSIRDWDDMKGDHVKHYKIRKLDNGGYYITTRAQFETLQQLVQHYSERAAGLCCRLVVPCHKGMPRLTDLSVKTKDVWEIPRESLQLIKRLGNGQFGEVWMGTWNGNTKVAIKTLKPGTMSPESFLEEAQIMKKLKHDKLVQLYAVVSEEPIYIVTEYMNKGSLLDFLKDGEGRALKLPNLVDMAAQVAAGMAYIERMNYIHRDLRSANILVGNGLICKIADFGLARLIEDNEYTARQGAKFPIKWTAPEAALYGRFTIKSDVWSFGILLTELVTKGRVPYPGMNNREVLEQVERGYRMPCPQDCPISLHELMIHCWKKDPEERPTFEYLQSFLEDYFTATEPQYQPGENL
readout: IC50

Query: Tell me its IC50 on Tyrosine-protein kinase Fyn (Homo sapiens): "COC(=O)Nc1ccc(-c2nc(N3CCOCC3)c3cnn(C4CCN(C(=O)OC)CC4)c3n2)cc1"
Reply: > 50 µM

---

experimental.target: UniProt P05771
Sequence (P05771 whole entry): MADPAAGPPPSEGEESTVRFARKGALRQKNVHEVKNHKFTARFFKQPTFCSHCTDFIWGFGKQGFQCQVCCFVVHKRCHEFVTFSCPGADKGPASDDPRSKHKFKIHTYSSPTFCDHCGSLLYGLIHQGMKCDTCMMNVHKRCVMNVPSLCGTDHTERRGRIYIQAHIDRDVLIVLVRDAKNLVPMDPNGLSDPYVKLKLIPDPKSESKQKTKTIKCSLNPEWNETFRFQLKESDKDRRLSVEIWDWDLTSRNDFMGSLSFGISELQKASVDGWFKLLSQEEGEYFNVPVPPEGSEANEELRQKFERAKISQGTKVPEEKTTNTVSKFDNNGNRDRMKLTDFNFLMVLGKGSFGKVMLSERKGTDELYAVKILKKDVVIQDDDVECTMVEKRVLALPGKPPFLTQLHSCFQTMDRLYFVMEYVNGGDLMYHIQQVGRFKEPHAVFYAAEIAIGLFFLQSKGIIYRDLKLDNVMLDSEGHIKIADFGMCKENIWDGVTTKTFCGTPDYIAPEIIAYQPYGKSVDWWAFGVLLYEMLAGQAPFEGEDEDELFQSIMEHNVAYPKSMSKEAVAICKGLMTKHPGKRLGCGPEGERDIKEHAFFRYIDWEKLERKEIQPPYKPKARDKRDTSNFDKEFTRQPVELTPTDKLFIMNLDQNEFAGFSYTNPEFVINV
readout: IC50

Query: Report IC50, nothing else, for this compound: "COC(=O)Nc1ccc(-c2nc(N3CCOCC3)c3cnn(C4CCN(C(=O)OC)CC4)c3n2)cc1"
Reply: > 50 µM

---

experimental.target: Inhibitor of nuclear factor kappa-B kinase subunit alpha (Homo sapiens)
Sequence (O15111 whole entry): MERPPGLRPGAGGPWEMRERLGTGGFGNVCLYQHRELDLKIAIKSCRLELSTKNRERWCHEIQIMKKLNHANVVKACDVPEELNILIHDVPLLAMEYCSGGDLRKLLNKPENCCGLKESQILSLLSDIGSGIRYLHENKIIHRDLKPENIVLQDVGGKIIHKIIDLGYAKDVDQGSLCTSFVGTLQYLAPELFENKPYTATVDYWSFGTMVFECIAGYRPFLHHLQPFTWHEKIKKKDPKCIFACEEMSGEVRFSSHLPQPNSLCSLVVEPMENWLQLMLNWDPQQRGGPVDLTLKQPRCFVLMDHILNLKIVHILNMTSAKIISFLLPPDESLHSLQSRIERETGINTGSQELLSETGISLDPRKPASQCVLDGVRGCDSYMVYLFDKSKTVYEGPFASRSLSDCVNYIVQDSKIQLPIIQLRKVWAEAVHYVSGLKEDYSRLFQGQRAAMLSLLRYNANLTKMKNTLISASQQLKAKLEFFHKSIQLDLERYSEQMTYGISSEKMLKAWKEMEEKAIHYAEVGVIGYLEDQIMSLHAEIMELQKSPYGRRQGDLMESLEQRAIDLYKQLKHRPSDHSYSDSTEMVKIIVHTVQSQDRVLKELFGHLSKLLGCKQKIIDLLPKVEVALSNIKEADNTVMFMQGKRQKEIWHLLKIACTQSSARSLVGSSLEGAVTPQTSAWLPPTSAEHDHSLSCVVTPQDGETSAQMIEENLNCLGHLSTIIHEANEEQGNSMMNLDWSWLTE
assay.procedure: Inhibition of IKKalpha after 1 hr by mobility shift electrophoresis assay
pIC50: −log10 of the molar value.
readout: pIC50

Query: Identify pIC50 associated with the compound "COC(=O)Nc1ccc(-c2nc(N3CCOCC3)c3cnn(C4CCN(C(=O)OC)CC4)c3n2)cc1"
Reply: < 4.30

---

experimental.target: MAP kinase-activated protein kinase 2 (Homo sapiens)
Sequence (P49137 whole entry): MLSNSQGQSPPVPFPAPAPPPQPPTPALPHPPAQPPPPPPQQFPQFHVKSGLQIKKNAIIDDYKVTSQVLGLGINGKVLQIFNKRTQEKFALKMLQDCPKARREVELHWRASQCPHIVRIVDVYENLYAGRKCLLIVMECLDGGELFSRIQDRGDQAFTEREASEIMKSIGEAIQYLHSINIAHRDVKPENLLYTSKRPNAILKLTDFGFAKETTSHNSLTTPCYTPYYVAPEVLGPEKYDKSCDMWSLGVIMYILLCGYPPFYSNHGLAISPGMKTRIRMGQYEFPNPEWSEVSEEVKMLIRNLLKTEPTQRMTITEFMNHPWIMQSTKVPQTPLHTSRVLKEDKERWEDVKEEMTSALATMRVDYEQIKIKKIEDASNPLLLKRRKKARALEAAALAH
assay.procedure: Inhibition of MK2 after 1 hr by mobility shift electrophoresis assay
pIC50: −log10 of the molar value.
readout: pIC50

Query: Indicate the recorded pIC50 value for this compound: "COC(=O)Nc1ccc(-c2nc(N3CCOCC3)c3cnn(C4CCN(C(=O)OC)CC4)c3n2)cc1"
Reply: < 4.30

---

experimental.target: Tyrosine-protein kinase ABL1 (Homo sapiens, UniProt P00519)
Sequence (P00519 whole entry): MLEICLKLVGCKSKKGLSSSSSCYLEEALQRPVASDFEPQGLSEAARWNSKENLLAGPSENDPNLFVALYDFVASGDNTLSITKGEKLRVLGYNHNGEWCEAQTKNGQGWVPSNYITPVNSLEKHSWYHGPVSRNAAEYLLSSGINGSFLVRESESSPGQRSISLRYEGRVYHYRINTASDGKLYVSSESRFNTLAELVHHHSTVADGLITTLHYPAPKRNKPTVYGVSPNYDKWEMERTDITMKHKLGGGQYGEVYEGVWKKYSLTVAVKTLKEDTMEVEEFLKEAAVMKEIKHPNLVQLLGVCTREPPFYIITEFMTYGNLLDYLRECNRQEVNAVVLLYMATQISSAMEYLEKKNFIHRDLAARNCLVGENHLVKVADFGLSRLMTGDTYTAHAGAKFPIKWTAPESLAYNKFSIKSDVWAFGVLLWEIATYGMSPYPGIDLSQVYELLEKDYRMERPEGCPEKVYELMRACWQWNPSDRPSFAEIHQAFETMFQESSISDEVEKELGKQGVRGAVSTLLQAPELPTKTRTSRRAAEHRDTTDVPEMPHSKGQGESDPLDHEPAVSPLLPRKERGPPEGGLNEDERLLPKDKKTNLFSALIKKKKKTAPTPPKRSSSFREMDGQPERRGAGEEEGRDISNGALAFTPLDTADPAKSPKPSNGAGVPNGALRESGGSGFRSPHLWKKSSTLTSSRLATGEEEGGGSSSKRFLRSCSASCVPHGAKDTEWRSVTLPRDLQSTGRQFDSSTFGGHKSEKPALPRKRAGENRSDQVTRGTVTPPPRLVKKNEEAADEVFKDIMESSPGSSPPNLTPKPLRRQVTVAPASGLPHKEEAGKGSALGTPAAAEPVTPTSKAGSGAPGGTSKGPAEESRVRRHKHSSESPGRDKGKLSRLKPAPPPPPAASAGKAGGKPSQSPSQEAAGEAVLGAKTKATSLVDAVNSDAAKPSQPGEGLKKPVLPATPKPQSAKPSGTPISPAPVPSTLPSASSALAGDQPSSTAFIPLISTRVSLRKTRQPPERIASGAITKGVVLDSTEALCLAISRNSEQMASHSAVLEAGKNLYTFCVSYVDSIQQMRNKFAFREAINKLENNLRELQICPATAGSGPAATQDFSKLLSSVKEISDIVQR
readout: IC50

Query: Write down IC50 measured for item "COC(=O)Nc1ccc(-c2nc(N3CCOCC3)c3cnn(C4CCN(C(=O)OC)CC4)c3n2)cc1"
Reply: > 50 µM

---

Each item that follows carries a reported IC50.
experimental.target: Serine/threonine-protein kinase mTOR (Homo sapiens)
assay.procedure: Inhibition of flag-tagged truncated human mTOR (1360-2549) expressed in HEK293 cells by DELFIA assay
Format: cell-based
Give your result in nM as a bare value.

CNC(=O)Nc1ccc(-c2nc(N3CCOCC3)c3cnn(C4CCN(C(=O)N(C)C)CC4)c3n2)cc1
1.1
CNC(=O)Nc1ccc(-c2nc(N3CCOCC3)c3cnn(C4CCNCC4)c3n2)cc1
1.4
CC(=O)Nc1cccc(-c2nc(N3CCOCC3)c3cnn(C4CCN(Cc5ccccc5)CC4)c3n2)c1
2450
COC(=O)N1CCC(n2ncc3c(N4CCOCC4)nc(-c4ccc(NC(=O)Nc5cccnc5)cc4)nc32)CC1
0.2
Oc1cccc(-c2nc(N3CCOCC3)c3cnn(C4CCN(Cc5cccnc5)CC4)c3n2)c1
9.6

Query: Report IC50 on Serine/threonine-protein kinase mTOR (Homo sapiens) for this entry: "COC(=O)Nc1ccc(-c2nc(N3CCOCC3)c3cnn(C4CCN(C(=O)OC)CC4)c3n2)cc1"
Reply: 4.3
